Please provide measured TGI for the entries that follow.
# Test system: HOP-92 NSCLC
# protocol_description: NCI tumour cell line growth inhibition, 48 h
Return type: number; implicit unit µM.

Form: Entry = O=C1CCS/C(=N/S(=O)(=O)c2ccc(N3N=C4c5ccccc5CC4C3c3cccs3)cc2)N1Cc1ccccc1 (stereo not given) | System = HOP-92 NSCLC | TGI = ____
83.7

Form: Entry = "O=C(C(=O)c1cc(Br)ccc1O)c1cc(Br)ccc1O" | System = HOP-92 NSCLC | TGI = ____
5.58

Form: Entry = "N/C(=N\C(N)=N\c1nc2ccccc2s1)c1cnccn1" | System = HOP-92 NSCLC | TGI = ____
16.1

Form: Entry = "COc1cc2cc3c(c(O)c2c(O)c1-c1c(OC)cc2cc4c(c(O)c2c1O)C(=O)O[C@H](C)C4)C(=O)O[C@H](C)C3" | System = HOP-92 NSCLC | TGI = ____
74.3

* * *

# Tested on: COLO 205 colon
# protocol_description: NCI tumour cell line growth inhibition, 48 h
Please provide measured TGI for the entries that follow.
Return type: number; implicit unit µM.

Using the record for "Oc1ccccc1C=Nc1nc(OCc2ccccc2)nc2[nH]ncc12" , report its TGI.
49.6

Using the record for CC1CCCN1CCCOC(=O)c1ccc(OC2C=CCCC2)cc1 (stereo not given) , report its TGI.
31.4

Using the record for "COc1ccc(/C(C)=C(\c2ccc(Cl)cc2)c2ccc(OCCN3CCCCCC3)cc2)cc1F" , report its TGI.
7.47

Using the record for "CCSc1ncc(Br)c(Sc2nc(N)nc3nc[nH]c23)n1" , report its TGI.
52.6

Using the record for "COc1cc2cc3c(c(O)c2c(O)c1-c1c(OC)cc2cc4c(c(O)c2c1O)C(=O)O[C@H](C)C4)C(=O)O[C@H](C)C3" , report its TGI.
78.7

Using the record for "CC1=C(CNO)C2=C(C)C3(CC3)[C@@](C)(O)C(=O)C2=C1" , report its TGI.
3.83

* * *

# Tested on: EKVX NSCLC
# protocol_description: NCI tumour cell line growth inhibition, 48 h
Please provide measured TGI for the entries that follow.

Form: Entry = NC(N)=NCCCC(NC(=O)c1c2ccccc2nc2ccccc12)C(=O)O (stereo not drawn) | System = EKVX NSCLC | TGI = ____
> 100 µM

Form: Entry = NC(Cc1ccccc1CP(=O)(O)O)C(=O)O (stereo not drawn) | System = EKVX NSCLC | TGI = ____
> 100 µM

Form: Entry = Nc1ncc(C2[C@H](CNC(=O)c3cc(Br)c[nH]3)C(CNC(=O)c3cc(Br)c[nH]3)[C@@H]2c2cnc(N)[nH]2)[nH]1 (stereo partly drawn) | System = EKVX NSCLC | TGI = ____
45.6 µM

Form: Entry = "C/C(Nc1ccc(Cl)cc1)=C1/CCOC1=O" | System = EKVX NSCLC | TGI = ____
> 100 µM

Form: Entry = "COc1cc(/C=C2/Oc3c(OC)cccc3C2=O)ccc1O" | System = EKVX NSCLC | TGI = ____
> 100 µM

Form: Entry = COC1OC(C(=O)O)C2OC(C)(C)OC12 (stereo not drawn) | System = EKVX NSCLC | TGI = ____
> 100 µM

Form: Entry = "CNCc1ccc(-c2[nH]c3cc(F)cc4c3c2CCNC4=O)cc1" | System = EKVX NSCLC | TGI = ____
> 83.1 µM

Form: Entry = Nc1ncnc2c1nc(Cl)n2C1OC(CO)C(O)C1O (stereo not drawn) | System = EKVX NSCLC | TGI = ____
> 71.1 µM

Form: Entry = "COc1cc(N(CCC#N)CCC#N)ccc1/C(N=Nc1ccc(C(=O)O)cc1)=N/NC(=O)c1cc(Br)ccc1O" | System = EKVX NSCLC | TGI = ____
> 150 mg/L

Form: Entry = "C#CC#CC#CC#CC#CC#CC#CC#CC[C@@H]1OC[C@@H](COC(=O)O[C@@H](C(=O)O[C@H]2C[C@@]3(O)[C@@H](OC(=O)c4ccccc4)[C@@H]4[C@]5(OC(C)=O)CO[C@@H]5C[C@H](O)[C@@]4(C)C(=O)[C@H](OC(C)=O)C(=C2C)C3(C)C)[C@@H](NC(=O)c2ccccc2)c2ccccc2)O1" | System = EKVX NSCLC | TGI = ____
> 33.3 µM

Form: Entry = "Cn1c(=O)c2c(nc(N/N=C3/SCC(=O)N3Cc3ccccc3)n2C)n(C)c1=O" | System = EKVX NSCLC | TGI = ____
> 100 µM

Form: Entry = "CC1(C)CC[C@]2(C(=O)O)CC[C@]3(C)C(=CC[C@@H]4[C@@]5(C)C/C(=C/c6ccco6)C(=O)C(C)(C)[C@@H]5CC[C@]43C)[C@@H]2C1" | System = EKVX NSCLC | TGI = ____
31.1 µM

Form: Entry = "CC[C@@]1(O)C(=O)OCc2c1cc1n(c2=O)Cc2c-1nc1ccccc1c2C=Nc1ccccc1N[C@@H]1c2cc3c(cc2[C@@H](c2cc(OC)c(O)c(OC)c2)[C@H]2C(=O)OC[C@@H]21)OCO3" | System = EKVX NSCLC | TGI = ____
> 44.5 µM

Form: Entry = Clc1cc2ncn(C3CCCCO3)c2cc1Cl (stereo not drawn) | System = EKVX NSCLC | TGI = ____
92.4 µM

Form: Entry = NC(=O)c1ncn(C2OC(CO)C(O)C2O)c1N (stereo not drawn) | System = EKVX NSCLC | TGI = ____
> 100 µM

Form: Entry = COc1cccc(C2C(C#N)=C(N)Oc3cc4c(cc32)OCO4)c1 (stereo not drawn) | System = EKVX NSCLC | TGI = ____
58.8 µM

Form: Entry = CCCCCCCCCCCCC1N=C(N)N2CCCC2=C1C(=O)OC (stereo not drawn) | System = EKVX NSCLC | TGI = ____
35.4 µM

Form: Entry = "CC(=O)C(C(C)=O)[C@H]1OC(C)(C)O[C@H]1[C@H]1COC(C)(C)O1" | System = EKVX NSCLC | TGI = ____
> 100 µM
